Data provenance: ChEMBL document CHEMBL4219199

assaySystem: Voltage-dependent N-type calcium channel subunit alpha-1B (Homo sapiens, UniProt Q00975)
Sequence (Q00975 whole entry): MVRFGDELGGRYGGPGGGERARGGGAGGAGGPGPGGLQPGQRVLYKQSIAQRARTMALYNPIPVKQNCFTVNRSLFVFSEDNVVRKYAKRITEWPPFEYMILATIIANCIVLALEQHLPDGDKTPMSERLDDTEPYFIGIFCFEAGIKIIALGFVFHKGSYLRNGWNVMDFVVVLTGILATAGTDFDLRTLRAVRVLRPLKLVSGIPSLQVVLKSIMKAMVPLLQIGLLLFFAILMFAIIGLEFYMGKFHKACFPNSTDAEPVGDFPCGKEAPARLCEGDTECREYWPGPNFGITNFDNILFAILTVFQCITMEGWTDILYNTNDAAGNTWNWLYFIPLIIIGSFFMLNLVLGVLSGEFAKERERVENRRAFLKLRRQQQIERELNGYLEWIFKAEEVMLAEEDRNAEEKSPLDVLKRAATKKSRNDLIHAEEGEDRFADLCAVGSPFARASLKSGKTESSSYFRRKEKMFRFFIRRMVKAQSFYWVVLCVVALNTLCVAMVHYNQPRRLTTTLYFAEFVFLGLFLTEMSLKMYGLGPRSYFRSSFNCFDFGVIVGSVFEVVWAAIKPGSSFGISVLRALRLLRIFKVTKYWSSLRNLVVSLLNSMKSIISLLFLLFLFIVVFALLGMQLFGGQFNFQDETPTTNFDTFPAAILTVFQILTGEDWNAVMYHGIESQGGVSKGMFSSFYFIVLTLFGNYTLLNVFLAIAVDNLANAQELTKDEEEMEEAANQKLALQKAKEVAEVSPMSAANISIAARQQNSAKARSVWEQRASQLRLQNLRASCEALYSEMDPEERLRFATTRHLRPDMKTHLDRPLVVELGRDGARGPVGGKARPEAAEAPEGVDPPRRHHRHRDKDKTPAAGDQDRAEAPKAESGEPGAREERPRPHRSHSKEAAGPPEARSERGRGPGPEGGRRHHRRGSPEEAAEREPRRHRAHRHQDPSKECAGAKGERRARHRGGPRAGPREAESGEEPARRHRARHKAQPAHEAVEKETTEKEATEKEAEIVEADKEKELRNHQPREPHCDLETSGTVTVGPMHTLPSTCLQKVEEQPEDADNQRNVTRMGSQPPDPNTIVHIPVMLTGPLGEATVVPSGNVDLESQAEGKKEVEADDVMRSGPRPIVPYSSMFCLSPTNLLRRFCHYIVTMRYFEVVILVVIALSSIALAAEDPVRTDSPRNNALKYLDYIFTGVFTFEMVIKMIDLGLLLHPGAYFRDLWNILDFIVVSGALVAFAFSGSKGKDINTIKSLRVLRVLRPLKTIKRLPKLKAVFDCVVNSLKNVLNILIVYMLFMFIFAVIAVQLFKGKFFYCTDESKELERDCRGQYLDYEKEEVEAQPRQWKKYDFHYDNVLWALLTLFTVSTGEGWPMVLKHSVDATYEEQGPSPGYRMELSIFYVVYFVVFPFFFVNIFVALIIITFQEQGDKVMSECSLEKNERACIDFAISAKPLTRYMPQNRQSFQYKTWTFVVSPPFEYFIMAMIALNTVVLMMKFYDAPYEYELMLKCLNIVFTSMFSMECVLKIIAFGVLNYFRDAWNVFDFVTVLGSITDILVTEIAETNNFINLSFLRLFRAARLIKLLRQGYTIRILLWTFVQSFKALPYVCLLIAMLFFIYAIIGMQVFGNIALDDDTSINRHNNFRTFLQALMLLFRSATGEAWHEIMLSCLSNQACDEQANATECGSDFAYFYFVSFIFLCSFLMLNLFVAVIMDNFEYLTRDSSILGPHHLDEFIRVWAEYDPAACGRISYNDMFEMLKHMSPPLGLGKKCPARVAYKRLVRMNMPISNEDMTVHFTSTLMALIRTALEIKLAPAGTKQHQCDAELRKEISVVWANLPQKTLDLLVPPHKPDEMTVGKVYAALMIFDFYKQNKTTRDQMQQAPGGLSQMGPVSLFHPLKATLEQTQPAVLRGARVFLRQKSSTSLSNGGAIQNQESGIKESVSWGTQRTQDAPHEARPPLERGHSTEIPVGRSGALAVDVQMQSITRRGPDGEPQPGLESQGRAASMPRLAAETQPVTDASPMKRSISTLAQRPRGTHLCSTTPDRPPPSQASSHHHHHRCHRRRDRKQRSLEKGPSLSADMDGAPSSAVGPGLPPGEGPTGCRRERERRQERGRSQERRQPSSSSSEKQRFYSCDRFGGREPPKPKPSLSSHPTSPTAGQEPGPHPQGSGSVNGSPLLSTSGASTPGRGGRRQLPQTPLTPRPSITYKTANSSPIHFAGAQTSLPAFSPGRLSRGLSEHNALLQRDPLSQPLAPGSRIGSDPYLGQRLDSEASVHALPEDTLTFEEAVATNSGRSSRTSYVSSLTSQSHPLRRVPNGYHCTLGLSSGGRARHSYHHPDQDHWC
testMethodNotes: Inhibition of Cav2.2 in human SH-SY5Y cells assessed as decrease in KCl-induced calcium mobilization measured after 600 secs post compound addition and 300 secs post KCl addition in presence of CaV1 blocker nifedipine by calcium 4 dye-based FLIPR assay
Assay type: cell-based
propertyName: IC50 (µM)

[[record]]
chemicalstructure = "NC(N)=NCCCOc1ccc(CNc2nc3ccc(Oc4ccccc4)cc3s2)cc1"
propertyname = "IC50"
recordednumber = 103

[[record]]
chemicalstructure = "CN(Cc1ccc(OCCCNC(=N)N)cc1)c1nc2ccc(Oc3ccccc3)cc2s1"
propertyname = "IC50"
recordednumber = 113

[[record]]
chemicalstructure = "CN(Cc1ccc(OCCCNC(=N)N)cc1)c1nc2ccc(Oc3ccc(F)cc3)cc2s1"
propertyname = "IC50"
recordednumber = 100


* * *

assaySystem: Voltage-dependent N-type calcium channel subunit alpha-1B (Homo sapiens, UniProt Q00975)
testMethodNotes: Inhibition of Cav2.2 in human SH-SY5Y cells assessed as decrease in KCl-induced calcium mobilization measured after 600 secs post compound addition and 300 secs post KCl addition in presence of CaV1 blocker nifedipine by calcium 4 dye-based FLIPR assay
Type: cell-based
pIC50: −log10 of the molar value.
propertyName: pIC50

[[record]]
chemicalstructure = "N=C(N)NCCCOc1ccc(CNc2nc3ccc(Oc4ccc(F)cc4)cc3s2)cc1"
assaysystem = "Voltage-dependent N-type calcium channel subunit alpha-1B (Homo sapiens, UniProt Q00975)"
propertyname = "pIC50"
recordednumber = 3.61

[[record]]
chemicalstructure = "CN(Cc1ccc(OCCCNC(=N)N)cc1)c1nc2ccc(Oc3ccc(C#N)cc3)cc2s1"
assaysystem = "Voltage-dependent N-type calcium channel subunit alpha-1B (Homo sapiens, UniProt Q00975)"
propertyname = "pIC50"
recordednumber = 3.84

[[record]]
chemicalstructure = "CN(C)CCCOc1ccc(CNc2nc3ccc(Oc4ccc(F)cc4)cc3s2)cc1"
assaysystem = "Voltage-dependent N-type calcium channel subunit alpha-1B (Homo sapiens, UniProt Q00975)"
propertyname = "pIC50"
recordednumber = 4.40

[[record]]
chemicalstructure = "N=C(N)NCCCOc1ccc(CNc2nc3ccc(Oc4ccc(O)cc4)cc3s2)cc1"
assaysystem = "Voltage-dependent N-type calcium channel subunit alpha-1B (Homo sapiens, UniProt Q00975)"
propertyname = "pIC50"
recordednumber = 3.60

[[record]]
chemicalstructure = "N=C(N)NCCCOc1ccc(CNc2nc3ccc(Oc4cccc(C(F)(F)F)c4)cc3s2)cc1"
assaysystem = "Voltage-dependent N-type calcium channel subunit alpha-1B (Homo sapiens, UniProt Q00975)"
propertyname = "pIC50"
recordednumber = 3.89

[[record]]
chemicalstructure = "N#Cc1ccc(Oc2ccc3nc(NCc4ccc(OCCCN)cc4)sc3c2)cc1"
assaysystem = "Voltage-dependent N-type calcium channel subunit alpha-1B (Homo sapiens, UniProt Q00975)"
propertyname = "pIC50"
recordednumber = 4.39

[[record]]
chemicalstructure = "NCCCOc1ccc(CNc2nc3ccc(Oc4cccc(C(F)(F)F)c4)cc3s2)cc1"
assaysystem = "Voltage-dependent N-type calcium channel subunit alpha-1B (Homo sapiens, UniProt Q00975)"
propertyname = "pIC50"
recordednumber = 3.84

[[record]]
chemicalstructure = "CN(Cc1ccc(OCCCNC(=N)N)cc1)c1nc2ccc(Oc3cccc(C(F)(F)F)c3)cc2s1.O=C(O)C(F)(F)F"
assaysystem = "Voltage-dependent N-type calcium channel subunit alpha-1B (Homo sapiens, UniProt Q00975)"
propertyname = "pIC50"
recordednumber = 3.69

[[record]]
chemicalstructure = "CN(Cc1ccc(OCCCN)cc1)c1nc2ccc(Oc3ccc(O)cc3)cc2s1"
assaysystem = "Voltage-dependent N-type calcium channel subunit alpha-1B (Homo sapiens, UniProt Q00975)"
propertyname = "pIC50"
recordednumber = 3.93

